target: T1, IL-1β (UniProt P01584 117-269); experiment: Biacore, Fab periplasmic extract
T1 construct: Antigen of XPA23
readout label: fold difference in affinity against the original (fold)
The response must be a number in fold with no trailing unit.

A selection of reference data follows.
XPA23 heavy chain I51V (Fab, V domains shown, Fab, periplasmic extract; also called C5A I51V) VH: EVQLLESGGGLVQPGGSLRLSCAASGFTFSKYFMFWVRQAPGKGLEWVSVVSPSGGMTRYADSVKGRFTISRDNSKNTLYLQMNSLRAEDTAVYYCARVGYGGNSDYWGQGTLVTVSS VL: DIQMTQSPSSVSASVGDRLTIICRASQDINRWLAWYQQTPGNAPKLLIHSATSLQSGVPSRFSGSGSGTDFTLTINSLQPEDFATYYCQQADSFPLTFGGGTKVEIK = 0.99
XPA23 heavy chain F33T (Fab, V domains shown, Fab, periplasmic extract; also called C5A F33T) VH: EVQLLESGGGLVQPGGSLRLSCAASGFTFSKYTMFWVRQAPGKGLEWVSVISPSGGMTRYADSVKGRFTISRDNSKNTLYLQMNSLRAEDTAVYYCARVGYGGNSDYWGQGTLVTVSS VL: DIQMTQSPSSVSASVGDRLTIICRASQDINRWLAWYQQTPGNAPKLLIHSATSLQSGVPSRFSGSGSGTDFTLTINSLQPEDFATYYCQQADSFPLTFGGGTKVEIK = 0.78
XPA23 heavy chain S54A (Fab, V domains shown, Fab, periplasmic extract; also called C5A S54A) VH: EVQLLESGGGLVQPGGSLRLSCAASGFTFSKYFMFWVRQAPGKGLEWVSVISPAGGMTRYADSVKGRFTISRDNSKNTLYLQMNSLRAEDTAVYYCARVGYGGNSDYWGQGTLVTVSS VL: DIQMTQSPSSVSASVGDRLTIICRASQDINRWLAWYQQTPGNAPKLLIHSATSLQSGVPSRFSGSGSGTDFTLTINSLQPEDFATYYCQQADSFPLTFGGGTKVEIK = 1
XPA23 heavy chain I51T (Fab, V domains shown, Fab, periplasmic extract; also called C5A I51T) VH: EVQLLESGGGLVQPGGSLRLSCAASGFTFSKYFMFWVRQAPGKGLEWVSVTSPSGGMTRYADSVKGRFTISRDNSKNTLYLQMNSLRAEDTAVYYCARVGYGGNSDYWGQGTLVTVSS VL: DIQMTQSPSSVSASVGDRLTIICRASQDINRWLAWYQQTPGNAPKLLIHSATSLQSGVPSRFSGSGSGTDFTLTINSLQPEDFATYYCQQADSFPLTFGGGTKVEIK = 0.86
XPA23 heavy chain R59T (Fab, V domains shown, Fab, periplasmic extract; also called C5A R59T) VH: EVQLLESGGGLVQPGGSLRLSCAASGFTFSKYFMFWVRQAPGKGLEWVSVISPSGGMTTYADSVKGRFTISRDNSKNTLYLQMNSLRAEDTAVYYCARVGYGGNSDYWGQGTLVTVSS VL: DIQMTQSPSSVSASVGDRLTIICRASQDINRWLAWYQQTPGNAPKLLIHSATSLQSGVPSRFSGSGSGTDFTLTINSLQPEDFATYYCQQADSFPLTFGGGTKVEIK = 0.76

Summary for this binder, XPA23 heavy chain N104T (Fab, V domains shown, Fab, periplasmic extract; also called C5A N104T) VH: EVQLLESGGGLVQPGGSLRLSCAASGFTFSKYFMFWVRQAPGKGLEWVSVISPSGGMTRYADSVKGRFTISRDNSKNTLYLQMNSLRAEDTAVYYCARVGYGGTSDYWGQGTLVTVSS VL: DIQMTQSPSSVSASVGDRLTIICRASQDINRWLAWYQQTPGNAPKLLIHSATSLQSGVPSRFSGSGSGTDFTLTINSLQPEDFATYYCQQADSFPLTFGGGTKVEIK : fold difference in affinity against the original is 0.95

Please fill in: fold difference in affinity against the original reported for XPA23 heavy chain T58V (Fab, V domains shown, Fab, periplasmic extract; also called C5A T58V) VH: EVQLLESGGGLVQPGGSLRLSCAASGFTFSKYFMFWVRQAPGKGLEWVSVISPSGGMVRYADSVKGRFTISRDNSKNTLYLQMNSLRAEDTAVYYCARVGYGGNSDYWGQGTLVTVSS VL: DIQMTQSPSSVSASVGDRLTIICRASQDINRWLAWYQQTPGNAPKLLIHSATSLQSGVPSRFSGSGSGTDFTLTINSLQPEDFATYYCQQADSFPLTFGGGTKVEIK = 0.99

// field: fold difference in affinity against the original; key: XPA23 heavy chain G103V (Fab, V domains shown, Fab, periplasmic extract; also called C5A G103V) VH: EVQLLESGGGLVQPGGSLRLSCAASGFTFSKYFMFWVRQAPGKGLEWVSVISPSGGMTRYADSVKGRFTISRDNSKNTLYLQMNSLRAEDTAVYYCARVGYGVNSDYWGQGTLVTVSS VL: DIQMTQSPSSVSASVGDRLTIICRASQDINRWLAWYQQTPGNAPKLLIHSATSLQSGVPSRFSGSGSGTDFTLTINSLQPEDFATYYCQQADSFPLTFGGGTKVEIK ; value = 2.56

Measured fold difference in affinity against the original of XPA23 heavy chain S54L (Fab, V domains shown, Fab, periplasmic extract; also called C5A S54L) VH: EVQLLESGGGLVQPGGSLRLSCAASGFTFSKYFMFWVRQAPGKGLEWVSVISPLGGMTRYADSVKGRFTISRDNSKNTLYLQMNSLRAEDTAVYYCARVGYGGNSDYWGQGTLVTVSS VL: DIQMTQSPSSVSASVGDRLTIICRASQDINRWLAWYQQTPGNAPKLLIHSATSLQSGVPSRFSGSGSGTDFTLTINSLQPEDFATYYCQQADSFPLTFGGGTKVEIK : 0.91

Notebook: XPA23 heavy chain Y107I (Fab, V domains shown, Fab, periplasmic extract; also called C5A Y107I) VH: EVQLLESGGGLVQPGGSLRLSCAASGFTFSKYFMFWVRQAPGKGLEWVSVISPSGGMTRYADSVKGRFTISRDNSKNTLYLQMNSLRAEDTAVYYCARVGYGGNSDIWGQGTLVTVSS VL: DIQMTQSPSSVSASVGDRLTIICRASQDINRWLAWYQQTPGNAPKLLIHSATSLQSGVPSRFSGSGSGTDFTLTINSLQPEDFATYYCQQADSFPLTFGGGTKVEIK , fold difference in affinity against the original read as 0.96
